The measurements presented in this section are drawn from patent US20030147847A1.

- Assayed system: T1, NKG2D/Dap10 on transfected 293E cells (UniProt P26718 1-216; Q9UBK5 19-93)
- T1 construct: whole, on cells; Co-expressed on 293 EBNA (293E) cells from the pDC409 vector; also called NKG2D+FLAG tagged Dap10
- T1 sequence 1: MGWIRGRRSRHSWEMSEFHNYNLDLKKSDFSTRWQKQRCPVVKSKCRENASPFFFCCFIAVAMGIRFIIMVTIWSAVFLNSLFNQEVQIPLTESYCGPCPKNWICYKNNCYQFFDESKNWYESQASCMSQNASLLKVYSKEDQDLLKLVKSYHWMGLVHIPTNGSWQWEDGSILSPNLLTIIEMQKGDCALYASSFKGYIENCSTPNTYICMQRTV
- T1 sequence 2: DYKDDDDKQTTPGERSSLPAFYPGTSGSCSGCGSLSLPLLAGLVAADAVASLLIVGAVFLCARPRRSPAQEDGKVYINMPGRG
- Protocol: flow cytometry, transfected 293 EBNA cells, 2 µg Fc protein + goat anti-human IgG PE
Quantity kind: Mean Fluorescence Intensity (MFI)
Respond with the bare value in MFI.

Please review the entries below; each comes with its answer.
MICA/Fc (Fc fusion, UniProt Q29983 24-307, looked up, not shown: Fc portion not described) EPHSLRYNLTVLSWDGSVQSGFLTEVHLDGQPFLRCDRQKCRAKPQGQWAEDVLGNKTWDRETRDLTGNGKDLRMTLAHIKDQKEGLHSLQEIRVCEIHEDNSTRSSQHFYYDGELFLSQNLETKEWTMPQSSRAQTLAMNVRNFLKEDAMKTKTHYHAMHADCLQELRRYLKSGVVLRRTVPPMVNVTRSEASEGNITVTCRASGFYPWNITLSWRQDGVSLSHDTQQWGDVLPDGNGTYQTWVATRICQGEEQRFTCYMEHSGNHSTHPVPSGKVLVLQSHW
120
UL16-Fc fusion protein (Fc fusion, extracellular domain; not shown: IgG1 Fc (mutein form), as described for OX40-Fc (Baum et al., EMBO J. 13:3992-4001, 1994); the mutein is described in p-) VDLGSKSSNSTCRLNVTELASIHPGETWTLHGMCISICYYENVTEDEIIGVAFTWQHNESVVDLWLYQNDTVIRNFSDITTNILQDGLKMRTVPVTKLYTSRMVTNLTVGRYDCLRCENGTTKIIERLYVRLGSLYPRPPGSGLAKHPSVSADEELSA
21.2
ULBP3/Fc (Fc fusion, That entry lacks the first five residues of the leader and still holds the rest of the signal peptide and the GPI signal; not shown: Fc portion of ULBP3/Fc is not described) DAHSLWYNFTIIHLPRHGQQWCEVQSQVDQKNFLSYDCGSDKVLSMGHLEEQLYATDAWGKQLEMLREVGQRLRLELADTELEDFTPSGPLTLQVRMSCECEADGYIRGSWQFSFDGRKFLLFDSNNRKWTVVHAGARRMKEKWEKDSGLTTFFKMVSMRDCKSWLRDFLMHRKKRLEPTAPPTMAPG
102

Now for another entry.
Provide one value: measured Mean Fluorescence Intensity (MFI) of MICB/Fc (Fc fusion, UniProt Q29980 23-309, looked up, also called MICB1/FC; not shown: Fc portion not described) AEPHSLRYNLMVLSQDGSVQSGFLAEGHLDGQPFLRYDRQKRRAKPQGQWAENVLGAKTWDTETEDLTENGQDLRRTLTHIKDQKGGLHSLQEIRVCEIHEDSSTRGSRHFYYDGELFLSQNLETQESTVPQSSRAQTLAMNVTNFWKEDAMKTKTHYRAMQADCLQKLQRYLKSGVAIRRTVPPMVNVTCSEVSEGNITVTCRASSFYPRNITLTWRQDGVSLSHNTQQWGDVLPDGNGTYQTWVATRIRQGEEQRFTCYMEHSGNHGTHPVPSGKALVLQSQRTD
118
